pIC50 tested on HDAC1 (Homo sapiens, UniProt Q13547): recorded values
Sequence (Q13547 whole entry): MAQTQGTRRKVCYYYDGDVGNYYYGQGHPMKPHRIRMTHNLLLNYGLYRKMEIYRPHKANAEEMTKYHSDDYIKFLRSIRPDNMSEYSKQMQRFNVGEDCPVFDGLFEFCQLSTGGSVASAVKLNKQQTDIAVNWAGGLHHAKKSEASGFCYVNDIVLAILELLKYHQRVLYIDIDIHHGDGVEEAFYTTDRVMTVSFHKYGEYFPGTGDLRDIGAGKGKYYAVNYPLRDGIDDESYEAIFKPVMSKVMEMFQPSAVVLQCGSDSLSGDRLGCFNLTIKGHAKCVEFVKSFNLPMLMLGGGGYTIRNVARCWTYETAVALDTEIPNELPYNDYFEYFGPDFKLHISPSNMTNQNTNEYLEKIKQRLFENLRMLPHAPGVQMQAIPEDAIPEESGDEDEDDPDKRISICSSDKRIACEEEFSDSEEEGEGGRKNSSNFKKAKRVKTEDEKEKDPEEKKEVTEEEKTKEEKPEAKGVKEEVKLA
Value format note: pIC50 is -log10 of concentration (mol/L); just state the number.

Cc1c(Cc2ccc(C(=O)NO)cc2)c2ccccc2n1CC1CCN(CC2(F)CCN(C)CC2)CC1 [Compound 679]; 6.08

*Q* Tell me reported pIC50 for CCCc1c(Cc2ccc(C(=O)NO)cc2)c2ccccc2n1CC1CCN(CC(C)(C)O)CC1 [Compound 601] , tested with HDAC1 (Homo sapiens, UniProt Q13547).
*A* 5.25

*Q* Lookup: pIC50 / HDAC1 (Homo sapiens, UniProt Q13547) / Cc1c(Cc2ccc(C(=O)NO)cc2)c2ccccc2n1CC1CCN(CC(C)(C)O)CC1 [Compound 608]
*A* 5.97

*Q* Request: pIC50, test system HDAC1 (Homo sapiens, UniProt Q13547), entry Cc1c(Cc2ccc(C(=O)NO)cc2)c2cc(F)ccc2n1CCN1CC[C@H](F)C1 [Compound 589]
*A* 5.33

Entry source: patent US20160355475A1
